- Measured target: Feline_OSMR_hlgG1_Fc (feline)
- Sequence (chain, as listed by the source limits assumed, form in doubt): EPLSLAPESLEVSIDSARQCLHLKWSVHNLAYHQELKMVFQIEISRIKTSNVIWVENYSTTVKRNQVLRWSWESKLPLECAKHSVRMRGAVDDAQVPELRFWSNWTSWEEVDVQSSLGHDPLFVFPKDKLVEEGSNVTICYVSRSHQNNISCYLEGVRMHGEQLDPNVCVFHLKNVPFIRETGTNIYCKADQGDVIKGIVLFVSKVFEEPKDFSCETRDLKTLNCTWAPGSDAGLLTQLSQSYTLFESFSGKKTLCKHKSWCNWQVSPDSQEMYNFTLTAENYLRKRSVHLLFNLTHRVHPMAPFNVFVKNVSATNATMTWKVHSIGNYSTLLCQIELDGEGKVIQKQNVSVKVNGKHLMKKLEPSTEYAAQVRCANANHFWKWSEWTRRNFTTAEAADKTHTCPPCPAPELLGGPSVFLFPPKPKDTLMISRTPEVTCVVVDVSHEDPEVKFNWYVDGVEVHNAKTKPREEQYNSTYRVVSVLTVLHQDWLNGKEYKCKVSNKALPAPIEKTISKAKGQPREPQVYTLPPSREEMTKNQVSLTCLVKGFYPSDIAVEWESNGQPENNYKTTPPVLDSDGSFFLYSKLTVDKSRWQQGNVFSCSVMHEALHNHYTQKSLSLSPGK
- Test protocol: SPR Biacore
Metric: koff (s⁻¹)
Only the number, expressed in s⁻¹, is required.

Noted for mouse: canine 19F07 chimera (antibody, V domains shown) VH: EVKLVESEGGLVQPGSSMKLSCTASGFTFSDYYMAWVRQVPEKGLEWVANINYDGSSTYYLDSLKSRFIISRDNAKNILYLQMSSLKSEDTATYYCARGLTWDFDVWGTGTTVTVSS VL: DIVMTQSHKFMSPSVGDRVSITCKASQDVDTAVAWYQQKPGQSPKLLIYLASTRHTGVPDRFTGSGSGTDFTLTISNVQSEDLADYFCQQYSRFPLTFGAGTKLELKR : its koff reads 8.06e-05

Record Mu_09E09_VL (SEQ ID NO: 37)_G91A (antibody, V domains shown) VH: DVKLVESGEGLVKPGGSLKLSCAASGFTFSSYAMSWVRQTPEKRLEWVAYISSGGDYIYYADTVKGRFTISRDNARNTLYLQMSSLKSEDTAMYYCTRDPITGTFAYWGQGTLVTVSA VL: DLQMTQTTSSLSASLGDRVTISCRASQDINNYLNWYQQKPDGTVKLLIYYTSTLHSGVPSRFSGSGSGTDYSLTISNLEQEDIATYFCQQANTLPWTFGGGTKLEIKR , field koff: 0.00203

What the record says about Mu_09E09_VH (SEQ ID NO: 35)_T102A (antibody, V domains shown) VH: DVKLVESGEGLVKPGGSLKLSCAASGFTFSSYAMSWVRQTPEKRLEWVAYISSGGDYIYYADTVKGRFTISRDNARNTLYLQMSSLKSEDTAMYYCTRDPIAGTFAYWGQGTLVTVSA VL: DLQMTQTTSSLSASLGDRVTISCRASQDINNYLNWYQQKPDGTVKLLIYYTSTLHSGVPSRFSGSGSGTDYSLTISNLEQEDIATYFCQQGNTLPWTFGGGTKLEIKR : koff is 0.00187
